Reference source: PubChem BioAssay AID540276

- TEST NAME: qHTS for inhibitors of binding or entry into cells for Marburg Virus
- STATED CONDITIONS: Marburg virus pseudotyped entry inhibition, cell reporter; series mostly up to 37.8 µM
In all, about 300,000 compounds went through this assay and about 5,400 (1.8%) were called active. Another 28% or so got no clear call; they are omitted. Calls follow the shape of the full dose curve; tested in HEK293 cells. The entries come from a sample that favours actives as a whole.
Outcome codes: label 1 = active, label 0 = inactive

c1ccc(-c2cn3cccnc3n2)cc1 : label 0
Cc1ccc(OCC(=O)Oc2ccccc2[N+](=O)[O-])cc1 : label 0
CCC(C(=O)OCCN(CC)CC)c1ccccc1 (configuration not stated) : label 0
Cc1ccc(-n2c(-c3ccc([N+](=O)[O-])cc3)nc3ccccc3c2=O)cc1 : label 0
Cc1cc(Nc2ccc(Cl)cc2)nc(N2CCOCC2)n1 : label 1
c1ccc2c(c1)CSc1sccc1C2=C1CCNCC1 : label 1
O=C(NCCN1CCOCC1)c1cc(-c2cccs2)nc2ccccc12 : label 0
CCOC(=O)CCP(=O)(O)C(O)(c1ccccc1)c1ccccc1 : label 0
O=C(C1C=CC(C(=O)N2CCOCC2)S1)N1CCOCC1 (configuration not stated) : label 0
CNN/C(N=Cc1ccc([N+](=O)[O-])s1)=N\S(=O)(=O)c1cc(C)c(Cl)cc1SCc1ccccc1 : label 0
O=C(Cn1c(-c2ccccn2)nc2ccccc21)NCCN1CCOCC1 : label 0
Cc1ccc(-c2cn3cc([N+](=O)[O-])ccc3n2)cc1 : label 1
Cc1ccc(Oc2cnn(-c3ccccc3)c(=O)c2Br)cc1 : label 0
CCOc1ccc(NC(=O)CN(C)C(=O)c2cccc(S(=O)(=O)N3CCCC3)c2)cc1OCC : label 0
COc1ccc(-n2c(C)nc3c(cnn3-c3ccc(F)cc3)c2=O)cc1 : label 0
c1ccc2cc3c(NCCN4CCOCC4)ccnc3cc2c1 : label 1
O=C(Nc1cc(S(=O)(=O)N2CCOCC2)ccc1N1CCOCC1)c1c(F)cccc1Cl : label 0

====

- TEST NAME: qHTS for inhibitors of binding or entry into cells for Marburg Virus
- STATED CONDITIONS: Marburg virus pseudotyped entry inhibition, cell reporter; series mostly up to 37.8 µM
Out of some 300,000 compounds screened, about 5,400 (1.8%) were called active. About 28% were inconclusive and are not listed. The call rests on the fitted dose curve; tested in HEK293 cells. The entries come from a sample that favours actives as a whole.
Possible outcomes: active, inactive

COc1ccccc1CN1CCNC(=O)C1CC(=O)N(C)CC1CCOCC1 (centres undefined) : inactive
COc1ccc(NC(=O)c2nc(-n3nc(C)cc3C)ccc2Cl)cc1Cl : inactive
C=CCOc1ccc(C(=O)Nc2ccccc2C(=O)N2CCCC2)cc1 : inactive
C/C(=N\Nc1ccccc1)c1cccs1 : inactive
Cc1cc(O)ccc1-c1cnc2ccccc2n1 : inactive
COc1ccc(OC)c(NC(=O)C2CCCN2S(=O)(=O)c2cccc3nsnc23)c1 (centres undefined) : inactive
COc1ccc(CNC(=O)COC(=O)C2=Cc3ccccc3OC2)cc1 : inactive
CCCC(CNC(=O)COC(=O)C1=NNC(=O)CC1)c1ccc(Cl)cc1Cl (centres undefined) : inactive
CN(C)C(=O)CCc1ccc2c3c([nH]c2c1)[C@]1(CCC2CCCC2)[C@@H](C(=O)N2CCOCC2)C[C@H](CC(=O)NCc2ccco2)C(=O)N1CC3 : inactive
CC(C)(C)C(=O)Nc1cccc(-c2ccc[nH]2)n1 : inactive
COc1ccc(C(C(=O)NCC2CCCO2)N(C(=O)Cn2nnc3ccccc32)c2ccc(NC(C)=O)cc2)cc1OC (centres undefined) : inactive
Cc1ccc(Nc2nc(-c3ccc(O)cc3O)cs2)nc1 : active
O=c1nc(NO)ccn1C1CCCO1 (centres undefined) : inactive
CCOc1ccc(C2c3[nH]c4ccccc4c3CCN2Cc2cccn2-c2ncccn2)cc1 (centres undefined) : active
COc1cccc(N(C(=O)CNC(=O)c2ccco2)C(C(=O)NC2CCCCC2)c2cccnc2)c1 (centres undefined) : inactive
Cc1c(C(=O)N2CCOCC2)[nH]c2ccc(OCc3ccccc3)cc12 : inactive
Cc1ccc(NC(=O)CSc2nc(=O)n(CCN(C)C)c3c2CCCC3)c(C)c1 : inactive
COc1cccc(NC(=O)C/C(C)=N/NC(=O)C2CCCCC2)c1 : inactive
COCCNc1nc(N)c([N+](=O)[O-])c(N2CCCCCC2)n1 : inactive
CN1CCN(c2ccc([N+](=O)[O-])c(Sc3nc4ccccc4[nH]3)c2)CC1 : inactive
Fc1ccc2[nH]c3c(N4CCN(Cc5ccc6c(c5)OCO6)CC4)ncnc3c2c1 : active
CN1CCN(c2ccc(NC(=O)c3cc(Cl)c4c(c3)OCCO4)cc2)CC1 : inactive
Cc1cc(N2CCN(Cc3ccc4c(c3)OCO4)CC2)n2ncnc2n1 : inactive
O=C(CCNS(=O)(=O)c1ccccc1)NCCCc1ccccc1 : inactive
CCC(=O)Nc1ccc(S(=O)(=O)Nc2c(NC)c3ccccc3oc2=O)cc1 : inactive
Fc1ccc2[nH]c3c(N4CCSCC4)ncnc3c2c1 : active
Oc1ccc2ccccc2c1N=Nc1nccs1 : active
COc1ccccc1N(CC(=O)Nc1ccccc1C(=O)N1CCCC1)S(C)(=O)=O : inactive
Cc1c(CN2CCC(CO)(CCOc3ccccc3)CC2)[nH]c2ccc(Cl)cc12 : active
Cc1cc(C)nc(-n2nc(C)cc2NC(=O)c2ccc(Br)o2)n1 : inactive
Fc1ccc(N2CCN(Cc3ccc4c(c3)OCO4)CC2)cc1 : inactive
Cc1ccc(CSCC(=O)N(C)CC(=O)Nc2cccc(F)c2)cc1 : inactive
COc1ccc(Cl)cc1NS(=O)(=O)c1cccc(C(=O)NC2CCC(O)CC2)c1 (centres undefined) : inactive
O=C(c1cccc(F)c1)N1CCN(c2ccc([N+](=O)[O-])c(N3CCCCC3)c2)CC1 : inactive
Nc1nc(Nc2ccccc2)nc(NCCO)c1[N+](=O)[O-] : inactive
Oc1ccc2ccccc2c1C=Nc1ccccc1 : inactive
Cc1cc(F)ccc1NC(=S)NCCc1ccccc1 : inactive
Cc1nc2ccc(N)nc2nc1C : inactive
Cc1nn(Cc2ccccc2)c(C)c1NS(=O)(=O)c1ccccc1 : inactive
O=C(O)c1ccc2c(=O)n3c(nc2c1)/C(=C/c1ccc(OC(F)F)cc1OC(F)F)CC3 : inactive
COc1cc([C@H]2[C@@H]3C(=O)N(c4ccc(F)cc4)C(=O)[C@H]3ON2c2ccccc2)ccc1O : inactive
COc1ccc(CNC(=O)c2cc3c(s2)-c2ccccc2OC3)cc1 : active
COc1ccc(Nc2cc(C)nc(-n3nc(C)cc3C)n2)cc1 : active
CN1CCN(c2cc(N3CCNCC3)ccc2[N+](=O)[O-])CC1 : active

====

- TEST NAME: qHTS for inhibitors of binding or entry into cells for Marburg Virus; also: potency is read from the fitted curve at half-maximal effect
- STATED CONDITIONS: Marburg virus pseudotyped entry inhibition, cell reporter; series mostly up to 37.8 µM
Out of some 300,000 compounds screened, about 5,400 (1.8%) were called active. Not shown: some 28% with an inconclusive outcome. Shown is part of a subset that was picked to be rich in actives.
PROPERTY MEASURED: Potency

CCc1ccc(N(C(=O)c2csnn2)C(C(=O)NC2CCCCC2)c2ccncc2)cc1 (stereo unspecified) : inactive
c1ccc(C2c3[nH]c4ccccc4c3CCN2Cc2cccn2-c2cccnc2)nc1 (stereo unspecified) : inactive
Cc1ccc(CCC(=O)Nc2ncc(Cc3cc(Cl)ccc3Cl)s2)o1 : 651 nM (active)
CCOc1ccccc1NC(=O)CCc1ccc(C)o1 : inactive
O=C(c1cc2cc(Br)cc(Br)c2oc1=O)N1CCOCC1 : inactive
Cc1ccc(Nc2ccc(C(N)=O)cc2[N+](=O)[O-])cc1 : inactive

====

- TEST NAME: qHTS for inhibitors of binding or entry into cells for Marburg Virus
- STATED CONDITIONS: Marburg virus pseudotyped entry inhibition, cell reporter; series mostly up to 37.8 µM
In all, about 300,000 compounds went through this assay and about 5,400 (1.8%) were called active. Inconclusive results (about 28%) are left out. Calls come from the whole dose curve; tested in HEK293 cells. Many of the other results were omitted from the sample, so actives are more common in it than they were.
Possible outcomes: active, inactive

Cc1cc(N/C=C\C(=O)c2cccc3ccccc23)no1 : inactive
CCOC(=O)c1ccc(N2C(=O)c3n[nH]c(C)c3C2c2ccc(O)c(OC)c2)cc1 (stereo unspecified) : inactive
CCOC(=O)c1ccc(N2C(=O)c3n[nH]c(-c4ccco4)c3C2c2ccc(O)cc2)cc1 (stereo unspecified) : active
CCOc1cccc(-c2nnc(SCC(=O)NC3CC3)n2C)c1 : inactive
CC(NCc1nc2ccccc2n1C)C12CC3CC(CC(C3)C1)C2 (stereo unspecified) : active
c1ccc2c(c1)[I+]c1ccccc1-2 : active
CCCCc1nc2cc(C(=O)NCCc3cnn(C)c3)ccc2o1 : inactive
CCN(CCCNC(=O)CSc1cc(=O)n(C)c2cc(Cl)ccc12)Cc1ccccc1 : active
Cc1cc(NC(=O)c2cc3ccccc3o2)no1 : inactive
C/C(=N\NC(=O)Cc1ccc(Br)cc1)c1cccnc1 : inactive
CCOC(=O)c1ccc(N2C(=O)c3[nH]nc(-c4ccccc4)c3C2c2ccc(C(C)C)cc2)cc1 (stereo unspecified) : inactive
